compounds and their reported Drug uptake
# Procedure Summary: Drug uptake in human HT-29 cells at 10 uM incubated for 2 hrs by fluorescence based multiplate reader method
# Format: ADME, cell-based
# Test Settings: ht-29, 2 h
Recorded Metric: Drug uptake (%)

# Line Notation, Recorded Metric, Unit Abbrev, Value
measured = [
    ("O=C1c2ccc3c4c(c(NCc5cn(CCS[C@@H]6O[C@H](CO)[C@@H](O[C@H]7O[C@H](CO)[C@@H](O)[C@H](O)[C@H]7O)[C@H](O)[C@H]6O)nn5)cc(c24)C(=O)N1CCN1CCOCC1)C(=O)N(CCN1CCOCC1)C3=O", "Drug uptake", "%", 3.5),
    ("CN(C)CCCN1C(=O)c2ccc3c4c(c(NCc5cn(CCS[C@@H]6O[C@H](CO)[C@@H](O[C@H]7O[C@H](CO)[C@@H](O)[C@H](O)[C@H]7O)[C@H](O)[C@H]6O)nn5)cc(c24)C1=O)C(=O)N(CCCN(C)C)C3=O", "Drug uptake", "%", 23.1),
    ("CN(C)CCCN1C(=O)c2ccc3c4c(c(NCc5cn(CCO[C@@H]6O[C@H](CO)[C@@H](O[C@H]7O[C@H](CO)[C@@H](O)[C@H](O)[C@H]7O)[C@H](O)[C@H]6O)nn5)cc(c24)C1=O)C(=O)N(CCCN(C)C)C3=O", "Drug uptake", "%", 20.9),
    ("O=C1c2ccc3c4c(c(NCc5cn(CCO[C@@H]6O[C@H](CO)[C@@H](O[C@H]7O[C@H](CO)[C@@H](O)[C@H](O)[C@H]7O)[C@H](O)[C@H]6O)nn5)cc(c24)C(=O)N1CCN1CCOCC1)C(=O)N(CCN1CCOCC1)C3=O", "Drug uptake", "%", 3.2),
]

----------
# Procedure Summary: Selectivity index, ratio of IC50 for cytotoxicity against human MRC5 cells to IC50 for antitrypanosomal activity against Trypanosoma brucei
# Assay type: toxicity, cell-based
# Test Settings: MRC5 cells versus Trypanosoma brucei, read-out: Selectivity Index
molecules and their reported selectivity ratio

# Line Notation, Value Prefix, selectivity ratio
rows = [
    ("O=C1c2ccc3c4c(c(NCc5cn(CCS[C@@H]6O[C@H](CO)[C@@H](O[C@H]7O[C@H](CO)[C@@H](O)[C@H](O)[C@H]7O)[C@H](O)[C@H]6O)nn5)cc(c24)C(=O)N1CCN1CCOCC1)C(=O)N(CCN1CCOCC1)C3=O", ">", 16),
    ("O=C1c2ccc3c4c(c(NCc5cn(CCO[C@@H]6O[C@H](CO)[C@H](O)[C@H](O)[C@H]6O)nn5)cc(c24)C(=O)N1CCN1CCOCC1)C(=O)N(CCN1CCOCC1)C3=O", "=", 69.3),
    ("O=C1c2ccc3c4c(c(NCc5cn(CCS[C@H]6O[C@H](CO)[C@@H](O)[C@H](O)[C@@H]6O)nn5)cc(c24)C(=O)N1CCN1CCOCC1)C(=O)N(CCN1CCOCC1)C3=O", "=", 31),
    ("CN(C)CCCN1C(=O)c2ccc3c4c(c(NCc5cn(CCO[C@@H]6O[C@H](CO)[C@@H](O)[C@H](O)[C@H]6O)nn5)cc(c24)C1=O)C(=O)N(CCCN(C)C)C3=O", "=", 11.5),
    ("O=C1c2ccc3c4c(c(NCc5cn(CCO[C@@H]6O[C@H](CO)[C@@H](O[C@H]7O[C@H](CO)[C@@H](O)[C@H](O)[C@H]7O)[C@H](O)[C@H]6O)nn5)cc(c24)C(=O)N1CCN1CCOCC1)C(=O)N(CCN1CCOCC1)C3=O", ">", 15),
]

----------
# Procedure Summary: Selectivity index, ratio of IC50 for cytotoxicity against human MRC5 cells to IC50 for antitrypanosomal activity against Trypanosoma brucei
# Type: toxicity, cell-based
# Test Settings: MRC5 cells versus Trypanosoma brucei, read-out: Selectivity Index

# Line Notation, selectivity ratio
data = [
    ("O=C1c2ccc3c4c(c(NCc5cn(CCO[C@@H]6O[C@H](CO)[C@@H](O)[C@H](O)[C@H]6O)nn5)cc(c24)C(=O)N1CCN1CCOCC1)C(=O)N(CCN1CCOCC1)C3=O", 25.3),
    ("O=C1c2ccc3c4c(c(NCc5cn(CCO[C@H]6O[C@H](CO)[C@@H](O)[C@H](O)[C@@H]6O)nn5)cc(c24)C(=O)N1CCN1CCOCC1)C(=O)N(CCN1CCOCC1)C3=O", 14.5),
    ("CN(C)CCCN1C(=O)c2ccc3c4c(c(NCc5cn(CCS[C@@H]6O[C@H](CO)[C@@H](O[C@H]7O[C@H](CO)[C@@H](O)[C@H](O)[C@H]7O)[C@H](O)[C@H]6O)nn5)cc(c24)C1=O)C(=O)N(CCCN(C)C)C3=O", 49),
    ("CN(C)CCCN1C(=O)c2ccc3c4c(c(NCc5cn(CCS[C@H]6O[C@H](CO)[C@@H](O)[C@H](O)[C@@H]6O)nn5)cc(c24)C1=O)C(=O)N(CCCN(C)C)C3=O", 34.7),
    ("CN(C)CCCN1C(=O)c2ccc3c4c(c(NCc5cn(CCS[C@@H]6O[C@H](CO)[C@H](O)[C@H](O)[C@H]6O)nn5)cc(c24)C1=O)C(=O)N(CCCN(C)C)C3=O", 38.7),
]

----------
# Procedure Summary: Cytotoxicity against human MRC5 cells assessed as reduction in cell viability incubated for 48 hrs by MTT assay
# Format: toxicity, cell-based
Recorded Metric: IC50 at 48 h (µM)

# Line Notation, Unit Abbrev, Value Prefix, Value
records = [
    ("O=C1c2ccc3c4c(c(NCc5cn(CCS[C@@H]6O[C@H](CO)[C@@H](O)[C@H](O)[C@H]6O)nn5)cc(c24)C(=O)N1CCN1CCOCC1)C(=O)N(CCN1CCOCC1)C3=O", "µM", "=", 35.7),
    ("CN(C)CCCN1C(=O)c2ccc3c4c(c(NCc5cn(CCO[C@@H]6O[C@H](CO)[C@@H](O[C@H]7O[C@H](CO)[C@@H](O)[C@H](O)[C@H]7O)[C@H](O)[C@H]6O)nn5)cc(c24)C1=O)C(=O)N(CCCN(C)C)C3=O", "µM", "=", 1.8),
    ("CN(C)CCCN1C(=O)c2ccc3c4c(c(NCc5cn(CCS[C@@H]6O[C@H](CO)[C@@H](O)[C@H](O)[C@H]6O)nn5)cc(c24)C1=O)C(=O)N(CCCN(C)C)C3=O", "µM", "=", 2.75),
    ("CN(C)CCCN1C(=O)c2ccc3c4c(c(NCc5cn(CCS[C@@H]6O[C@H](CO)[C@H](O)[C@H](O)[C@H]6O)nn5)cc(c24)C1=O)C(=O)N(CCCN(C)C)C3=O", "µM", "=", 1.55),
    ("O=C1c2ccc3c4c(c(NCc5cn(CCO[C@H]6O[C@H](CO)[C@@H](O)[C@H](O)[C@@H]6O)nn5)cc(c24)C(=O)N1CCN1CCOCC1)C(=O)N(CCN1CCOCC1)C3=O", "µM", "=", 30.5),
    ("CN(C)CCCN1C(=O)c2ccc3c4c(c(NCc5cn(CCO[C@@H]6O[C@H](CO)[C@@H](O)[C@H](O)[C@H]6O)nn5)cc(c24)C1=O)C(=O)N(CCCN(C)C)C3=O", "µM", "=", 0.92),
    ("O=C1c2ccc3c4c(c(NCc5cn(CCS[C@@H]6O[C@H](CO)[C@@H](O[C@H]7O[C@H](CO)[C@@H](O)[C@H](O)[C@H]7O)[C@H](O)[C@H]6O)nn5)cc(c24)C(=O)N1CCN1CCOCC1)C(=O)N(CCN1CCOCC1)C3=O", "µM", ">", 50),
    ("O=C1c2ccc3c4c(c(NCc5cn(CCO[C@@H]6O[C@H](CO)[C@@H](O)[C@H](O)[C@H]6O)nn5)cc(c24)C(=O)N1CCN1CCOCC1)C(=O)N(CCN1CCOCC1)C3=O", "µM", "=", 7.86),
    ("O=C1c2ccc3c4c(c(NCc5cn(CCS[C@H]6O[C@H](CO)[C@@H](O)[C@H](O)[C@@H]6O)nn5)cc(c24)C(=O)N1CCN1CCOCC1)C(=O)N(CCN1CCOCC1)C3=O", "µM", "=", 22.6),
    ("O=C1c2ccc3c4c(c(NCc5cn(CCO[C@@H]6O[C@H](CO)[C@@H](O[C@H]7O[C@H](CO)[C@@H](O)[C@H](O)[C@H]7O)[C@H](O)[C@H]6O)nn5)cc(c24)C(=O)N1CCN1CCOCC1)C(=O)N(CCN1CCOCC1)C3=O", "µM", ">", 50),
]

----------
# System: Quadruplex DNA
# Procedure Summary: Binding affinity to human G-quadruplex telomeric DNA F21T (5'-duplex GGG TTAGGG TTAGGG TTAGGG-3') assessed as change in melting temperature at 1 uM incubated for 5 min by FRET assay
# Type: nucleic-acid assay

# Line Notation, ΔTm (°C)
rows = [
    ("CN(C)CCCN1C(=O)c2ccc3c4c(c(NCc5cn(CCO[C@@H]6O[C@H](CO)[C@H](O)[C@H](O)[C@H]6O)nn5)cc(c24)C1=O)C(=O)N(CCCN(C)C)C3=O", 10),
    ("O=C1c2ccc3c4c(c(NCc5cn(CCS[C@@H]6O[C@H](CO)[C@H](O)[C@H](O)[C@H]6O)nn5)cc(c24)C(=O)N1CCN1CCOCC1)C(=O)N(CCN1CCOCC1)C3=O", 1),
    ("O=C1c2ccc3c4c(c(NCc5cn(CCO[C@@H]6O[C@H](CO)[C@H](O)[C@H](O)[C@H]6O)nn5)cc(c24)C(=O)N1CCN1CCOCC1)C(=O)N(CCN1CCOCC1)C3=O", 1),
    ("CN(C)CCCN1C(=O)c2ccc3c4c(c(NCc5cn(CCO[C@@H]6O[C@H](CO)[C@@H](O[C@H]7O[C@H](CO)[C@@H](O)[C@H](O)[C@H]7O)[C@H](O)[C@H]6O)nn5)cc(c24)C1=O)C(=O)N(CCCN(C)C)C3=O", 10),
    ("CN(C)CCCN1C(=O)c2ccc3c4c(c(NCc5cn(CCS[C@@H]6O[C@H](CO)[C@H](O)[C@H](O)[C@H]6O)nn5)cc(c24)C1=O)C(=O)N(CCCN(C)C)C3=O", 10),
    ("CN(C)CCCN1C(=O)c2ccc3c4c(c(NCc5cn(CCS[C@@H]6O[C@H](CO)[C@@H](O[C@H]7O[C@H](CO)[C@@H](O)[C@H](O)[C@H]7O)[C@H](O)[C@H]6O)nn5)cc(c24)C1=O)C(=O)N(CCCN(C)C)C3=O", 10),
]
